From: paper PMC12371487

System: Dictyostelium discoideum (Dd) in infection
test details: Dd-Mm infection assay: host amoeba growth (fluorescence)
Type: cell-based
stated conditions: Dictyostelium discoideum; infected Dd, fluorescence AUC over 72 h at 25 °C; 6-concentration curve, top 100 μM, 1:3 steps; IC50 interpolated

- smi: "O=C(O)c1c(O)cccc1CCCCCCCCc1ccccc1"
  study system: "Dictyostelium discoideum (Dd) in infection"
  IC50: "2.47 µM"
- smi: "CCCCCCCCCCCCCc1cccc(O)c1C(=O)O"
  study system: "Dictyostelium discoideum (Dd) in infection"
  IC50: "66.7 µM"
- smi: "CC(=O)c1c(O)cc(O)cc1CCCCc1ccc2c(c1)OCO2"
  study system: "Dictyostelium discoideum (Dd) in infection"
  IC50: "22.2 µM"
- smi: "O=C(O)c1c(O)cccc1CCCCc1ccc2c(c1)OCO2"
  study system: "Dictyostelium discoideum (Dd) in infection"
  IC50: "66.7 µM"

---

Tested on: Dictyostelium discoideum (Dd) in infection
test details: Dd-Mm infection assay: host amoeba growth (fluorescence)
Format: cell-based
stated conditions: Dictyostelium discoideum; infected Dd, fluorescence AUC over 72 h at 25 °C; 6-concentration curve, top 100 μM, 1:3 steps; IC50 interpolated
pIC50: −log10 of the molar value.
This section presents molecules with their documented pIC50 values.
readout kind: pIC50

- smi: "O=C(O)c1c(O)cccc1CCCCCCc1ccc2c(c1)OCO2"
  readout kind: "pIC50"
  measured number: 5.13
- smi: "O=C(O)c1c(O)cccc1CCCCCCc1ccccc1"
  readout kind: "pIC50"
  measured number: 5.13
- smi: "CC(=O)c1c(O)c(Cl)c(O)c(Cl)c1CCCCCCc1ccccc1"
  readout kind: "pIC50"
  measured number: 5.13
